Data credit: patent US5652252A

Measured ED50 accompanies every entry in the list below.
Test system: Dukin-Hartley guinea pigs
procedure_summary: Bronchodilating activity in vivo (Konzett and Rossler), histamine bronchospasm
Design: species or system guinea pig
assay_conditions: Cavia porcellus, iv, 0.25 h; I.V. histamine tested 15 minutes after injection of the product; effective dose for 50% inhibition; anaesthetized guinea pigs; read-out: Bronchospam ED50 at 15 min
Write the value in mg/kg as a bare number.

Name the reported ED50 value associated with the compound CC1(C)C=C(c2cccc[n+]2[O-])c2cc(C(F)(F)F)ccc2OC1
0.101

So what's the measured ED50 for this one? CC1(C)C=C(c2cccc[n+]2[O-])c2cc(C#N)ccc2OC1
0.21

Consider the compound CC1(C)C=C(c2cccc[n+]2[O-])c2cc(F)c(F)cc2OC1 and give its measured ED50.
0.3

# query: ED50 of entry Cc1cc2c(cc1C#N)OCC(C)(C)C=C2c1cccc[n+]1[O-]
0.53

Entry CC1(C)C=C(c2cccc[n+]2[O-])c2cc(Cl)c(Cl)cc2OC1 has what ED50?
0.1

So what does the record say about ED50 for CC1(C)C=C(c2cccc[n+]2[O-])c2cc(C#N)ccc2CC1 ?
0.331

# query: ED50 of entry Cc1cc2c(cc1C#N)C(c1cccc[n+]1[O-])=CC(C)(C)CO2
0.2
